B1: library; a variant is named by its letters at N, in order (parent)
chain: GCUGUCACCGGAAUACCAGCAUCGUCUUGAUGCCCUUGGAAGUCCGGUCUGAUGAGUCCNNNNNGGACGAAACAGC

Variants of: B1
Assay: FACS-Seq fitted mean relative fluorescence mCherry/BFP with ligand (log10 relative fluorescence); ligand concentration (+) FACS-Seq: 1 mM; higher = higher reporter protein expression
Settings: HEK293T, ligand present: yes

{"mutant name": "UGUAC", "FACS-Seq fitted mean (log10)": 0.851}
{"mutant name": "CCUCC", "FACS-Seq fitted mean (log10)": 0.89}
{"mutant name": "AAAAU", "FACS-Seq fitted mean (log10)": 0.572}
{"mutant name": "UGAGC", "FACS-Seq fitted mean (log10)": 1.24}
{"mutant name": "CUACC", "FACS-Seq fitted mean (log10)": 1.02}
{"mutant name": "UUUUC", "FACS-Seq fitted mean (log10)": 0.94}
{"mutant name": "CGGAU", "FACS-Seq fitted mean (log10)": 0.522}
{"mutant name": "AGUGC", "FACS-Seq fitted mean (log10)": 0.297}
{"mutant name": "ACUAG", "FACS-Seq fitted mean (log10)": 1.08}
{"mutant name": "ACUUA", "FACS-Seq fitted mean (log10)": 0.66}
{"mutant name": "CAGAU", "FACS-Seq fitted mean (log10)": 1.05}
{"mutant name": "CCUAU", "FACS-Seq fitted mean (log10)": 1.05}
{"mutant name": "AUGAG", "FACS-Seq fitted mean (log10)": 0.868}
{"mutant name": "CCCGU", "FACS-Seq fitted mean (log10)": 0.82}
{"mutant name": "ACGUU", "FACS-Seq fitted mean (log10)": 0.657}
{"mutant name": "UAUUU", "FACS-Seq fitted mean (log10)": 0.906}
{"mutant name": "CAACC", "FACS-Seq fitted mean (log10)": 1.02}
{"mutant name": "UCUGU", "FACS-Seq fitted mean (log10)": 0.644}
{"mutant name": "CAAGU", "FACS-Seq fitted mean (log10)": 0.761}
{"mutant name": "GAAGG", "FACS-Seq fitted mean (log10)": 0.957}
{"mutant name": "GAGCU", "FACS-Seq fitted mean (log10)": 0.527}
{"mutant name": "GACUG", "FACS-Seq fitted mean (log10)": 0.61}
